# subject of test: AAV9 (adeno-associated virus serotype 9)
# method description: SPR, AAV on CM5 chip
Record form. Attribute: pKd. Fill in for each entry.
Remember, pKd is on a log scale: it is -log10 of the molar concentration.

The recorded pKd for A4-C4 (bispecific antibody) VQLQESGGGLVQAGGSLRLSCAASGSRFSINTMGWYRQAPGKQREFVATVTRGGNTNYAESVKGRFTISRDNAKNTVYLQMNSLRPEDTAVYYCHVDEVRDSSWTTSNIWGQGTQVTVSSGGGGSGGGGSGGGGSVQLQESGGGLVQAGGSLRLSCAASGSRFSINTMGWYRQAPGKQREFVATVTRGGNTNYAESVKGRFTISRDNAKNTVYLQMNSLRPEDTAVYYCHVDEVRDSSWTTSNIWGQGTQVTVSSGGGGSGGGGSGGGGSVQLQESGGGLVQPGGSLRLSCAASGSNFRINTMGWYRQAPGKQRELVATVTRGGSTNYADSVKGRFTISRDNPKDTVYLQMNSLRPEDTAVYYCHVDEVRESSWTTSNLWGQGTQVTVSS is 8.73

The recorded pKd for A4-C6 (bispecific antibody) VQLQESGGGLVQPGGSLRLSCAASGSNFRINTMGWYRQAPGKQRELVAPVTRGGSTNYADSVKGRFTISRDNAKNTVYLQMNSLRPEDTAVYYCHVDEVRESSWTTSNLWGQGTQVTVSSGGGGSGGGGSGGGGSVQLQESGGGLVQPGGSLRLSCAASGSNFSINTMGWYRQAPGKQRELVAALTRGGSTNYADSVKGRFTISRDNAKNTVYLQMNSLRPEDTAVYYCHVDEVRESSWTTSNLWGQGTQVTVSSGGGGSGGGGSGGGGSVQLQESGGGLVQPGGSLRLSCAASGSNFSINTMGWYRQAPGKQRELVATVTRGGDTNYADSVKGRFTISRDNAKNTVYLQMNSLRPEDTAVYYCHVDEIRESSWTTSNLWGQGTQVTVSS is 9.26

These entries and their values trace back to patent US20260193326A1.
